Tested on: MS2 coat protein
experimental_protocol: apparent KD of MS2 coat protein; higher = weaker reporter binding
assay_conditions: Eterna round: R107; input ligand: theophylline 20 uM
measurement_label: apparent KD of MS2 coat protein (µM)
Answer in µM, number only, no unit symbol.

GET /value?item= UGUAUGUGAUCUGAUACCAGUCCAACUGGUAAAGCACGAGGAUCACCCGUGUAAAAUUGGGACCCUUGGCAGCAGAUCGCAUACU &field=apparent KD of MS2 coat protein returns 0.352

----------
System: MS2 coat protein
experimental_protocol: apparent KD of MS2 coat protein; designed switch direction (-1 OFF switch, 1 ON switch): -1; higher = weaker reporter binding
assay_conditions: input ligand: microRNA oligo, concentration not stated
Use TRUE when the recorded apparent KD of MS2 coat protein is no lower than 0.03 µM; use FALSE when it is lower.

Examples from the recorded data:
CUUGUUUAUGUAGGAUAUGCCUGGCGUGCCUUUGCAGAAGGACAUGAGGAUCACCCAUGUAACAUGAGGCUCACCCAUGUCGCG [salish99_ExNG1_r04_105] (Eterna round: R96, puzzle: Exclusion NG 1); TRUE
CGGAUGUGAGGAUAUACAUGAGGAUCACCCAUGUGUGCCAGCUAGAUGACUGGCACUUGUAGAAGGCACGUCUG [Mat - Exclusion 3 - Mod of JL D91] (Eterna round: R96, puzzle: Exclusion 3); FALSE
CAGGGCAUGCGAGGAUAUAGCAACAUGAGGAUCACCCAUGUAUAAGGGUGUCCUAGGCAUGCGCGCUAGAAGGCGCUGGUUCUC [Onreusve] (Eterna round: R96, puzzle: Exclusion NG 2); FALSE

Dear colleague, could you confirm whether UACAUGAGGAUCACCCAUGUUUUGUCGUGUAUGGUAUUUAUCUAGGAUAUCAAUUGAGUUAUUUAUGAGAAGGAGAAUAUUAAU [JMF's solution 59] (Eterna round: R96, puzzle: Exclusion NG 3) has apparent KD of MS2 coat protein at or above 0.03 µM?
TRUE

Dear colleague, could you confirm whether GUAAUUAAUGUAGGAUAUGCAAGGCGAACCUAAGCAGAAGGACAUGAGGAUCACCCAUGUAUUGCGGUCUGCGUUCAGUUCGCU [salish99_ExNG1_r4_011] (Eterna round: R96, puzzle: Exclusion NG 1) has apparent KD of MS2 coat protein at or above 0.03 µM?
FALSE

----------
Tested on: MS2 coat protein
experimental_protocol: apparent KD of MS2 coat protein; designed switch direction (-1 OFF switch, 1 ON switch): -1; higher = weaker reporter binding
assay_conditions: input ligand: FMN 200 uM
Each entry below carries its recorded apparent KD of MS2 coat protein.
Answer in nM, number only, no unit symbol.

Answered examples (5):
ACCUAUGAGGAGGAUAUACAGUGCGAAAGGACAGUAGAAGGCUUCACAUGAGGAUCACCCAUGUCGAUAAGCGA [EX6 #83] (Eterna round: R97, puzzle: Exclusion 6); 30.2
CUGCUCCGUGUAGGAUAUGCAUAUUCCCAUUAUGCAGAAGGACAUGAGGAUCACCCAUGUAUGUUAUUAUCAUGUGUUACAUGC [Design 9] (Eterna round: R96, puzzle: Exclusion NG 1); 203
CACCCUGAUGACAAAUUACAUGAGGAUCACCCAUGUGCCUCGCAGGAUAUCCCAGCACGUCGCAAGGAGAAGGGCGACGCGCCA [Ralerira] (Eterna round: R96, puzzle: Exclusion NG 3); 31.5
UGAAACCUAGGAUAUACAUGAGGAUCACCCAUGUAAUGUAGUAUAGUAUAUGUAAGAUGUAGAAGGAGGAAUGU [LRO-Excl05-27-Smart Aleck] (Eterna round: R97, puzzle: Exclusion 3); 30.9
CGUAGCAUUGUGAGGAUAUCUAGAGCUUCGGCUCUAGAGAAGGCACAUGAGGAUCACCCAUGUGAUUAGCUACG [BmEx4/9-C1] (Eterna round: R97, puzzle: Brourd's mod of Exclusion 4); 1760

Alright, here's another sequence for you.
GET /value?item= UAAGAGUGAGGAUAUACGUCGCUGGCCCGGAUGGACGCAUGACAUGAGGAUCACCCAUGUAGAAGGCACAAAAC [Enxela Mod 14 - Jieux - Exclusion 2] (Eterna round: R97, puzzle: Exclusion 2) &field=apparent KD of MS2 coat protein returns 34.7

Values were extracted from the supplement of paper PMC9170038.
